- target.or.test.system: soluble human BACE (Homo sapiens, UniProt P56817)
- Construct: cells secreting human recombinant soluble BACE; made in house; conditioned medium
- Sequence (P56817 46-457 limits assumed): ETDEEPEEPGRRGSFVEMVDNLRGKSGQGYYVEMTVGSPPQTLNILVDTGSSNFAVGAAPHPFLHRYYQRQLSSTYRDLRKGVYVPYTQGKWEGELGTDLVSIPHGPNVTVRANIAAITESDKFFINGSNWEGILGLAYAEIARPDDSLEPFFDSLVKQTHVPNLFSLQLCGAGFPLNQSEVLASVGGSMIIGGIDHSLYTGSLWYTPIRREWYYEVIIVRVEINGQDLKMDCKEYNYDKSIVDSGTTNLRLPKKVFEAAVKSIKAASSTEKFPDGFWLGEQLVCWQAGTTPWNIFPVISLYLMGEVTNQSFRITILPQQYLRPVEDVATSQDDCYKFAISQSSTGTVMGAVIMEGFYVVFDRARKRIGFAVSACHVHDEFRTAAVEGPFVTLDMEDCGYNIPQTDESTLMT
- test.name: BACE activity Cell Free Assay (ELISA of cleaved synthetic APP substrate)
- Assay type: biochemical
- Procedure: A synthetic APP substrate that can be cleaved by beta˜secretase and having N-terminal biotin is used to assay beta-secretase activity in the presence or absence of the inhibitory compounds. […] The substrate and test compounds are added to 384 well polypropylene plates. The reaction is initiated by the addition of soluble BACE enzyme to a final volume of 12.5 μL per well. […] The readout, following assay development with TMB substrate and quenching with 0.09M sulfuric acid, is absorbance at 450 nm.
pIC50: −log10 of the molar value.
attribute.measured: pIC50

1. CC(=O)Nc1ccc(CN2CCC3(C=CC(=O)N3c3cccc(F)c3)CC2C)cc1 (racemic): 5.00 to 6.00
2. CC(C)Oc1cccc(CN2CC[C@]3(C=CC(=O)N3c3ccn(C)n3)C[C@@H]2C)c1: 4.00 to 5.00
3. CCCNc1ccc(CN2CCC3(C=CC(=O)N3c3cccc(F)c3)CC2C)cn1 (racemic): 3.52 to 4.00
4. Cc1ccsc1-c1cc(CN2CC[C@]3(CCC(=O)N3c3cccc(F)c3)C[C@@H]2C)ccc1O: 5.00 to 6.00

Form: compound = CC1CC2(CCC(=O)N2c2cccc(F)c2)CCN1Cc1cccc(Oc2ccccc2)c1 (racemic) ; pIC50 = 4.00 to 5.00

The recorded pIC50 for entry Cc1ccc(N2C(=O)C=C[C@]23CCN(Cc2cccc(OC(C)C)c2)[C@@H](C)C3)cn1 equals 4.00 to 5.00

// recorded pIC50 for CC(C)Oc1cccc(CN2CC[C@]3(C=CC(=O)N3c3ccccn3)C[C@@H]2C)c1 : 4.00 to 5.00

Notebook: Cc1ccc(Oc2cccc(CN3CCC4(C=CC(=O)N4c4cccc(F)c4)CC3C)c2)cc1 (racemic) , pIC50 read as 5.00 to 6.00

----------
The following compounds are listed with their measured IC50 values.
- target.or.test.system: soluble human BACE (Homo sapiens)
- Construct: cells secreting human recombinant soluble BACE; made in house; conditioned medium
- test.name: BACE activity Cell Free Assay (ELISA of cleaved synthetic APP substrate)
- Assay type: biochemical

Solved cases below.
1) Cc1ccnc(N2C(=O)C=C[C@]23CCN(Cc2cccc(OC(C)C)c2)[C@@H](C)C3)c1 [#108]: 1 to 10 µM
2) CC1CC2(C=CC(=O)N2c2cccc(F)c2)CCN1Cc1cccc(C#N)c1 (racemic) [Example 7]: 10 to 100 µM

Documented IC50 of CC1CC2(C=CC(=O)N2c2cccc(F)c2)CCN1Cc1cccc(OCc2nc(C3CC3)no2)c1 (racemic) [Example 68] : 10 to 100 µM

The recorded IC50 for entry CC(C)Oc1cccc(CN2CC[C@]3(C=CC(=O)N3c3ccncc3)C[C@@H]2C)c1 [#102] equals 100 to 300 µM

----------
- target.or.test.system: soluble human BACE (Homo sapiens)
- Construct: cells secreting human recombinant soluble BACE; made in house; conditioned medium
- test.name: BACE activity Cell Free Assay (ELISA of cleaved synthetic APP substrate)
- Format: biochemical
pIC50: −log10 of the molar value.
attribute.measured: pIC50

The examples below pair each entry with its known result.
1. CC(C)Oc1cccc(CN2CC[C@]3(C=CC(=O)N3c3cncc(F)c3)C[C@@H]2C)c1 [#116]: 5.00 to 6.00
2. CC(C)Oc1cccc(CN2CC[C@]3(C=CC(=O)N3c3cc(C(F)(F)F)ccn3)C[C@@H]2C)c1 [#119]: 3.52 to 4.00

response.value for Cc1cc(N2C(=O)C=C[C@]23CCN(Cc2cccc(OC(C)C)c2)[C@@H](C)C3)ccn1 [#110] (field: pIC50) = 4.00 to 5.00

What the record says about Cc1cccc(N2C(=O)C=C[C@]23CCN(Cc2ccc(O)c(-c4sccc4C)c2)[C@@H](C)C3)n1 [#136] : pIC50 is 6.00 to 9.00

Item: C[C@H]1C[C@@]2(C=CC(=O)N2c2cccc(F)c2)CCN1Cc1ccc(O)c(-c2ccccc2F)c1 [#208] | pIC50: 6.00 to 9.00

// pIC50 value for CCn1cc(N2C(=O)C=C[C@]23CCN(Cc2cccc(OC(C)C)c2)[C@@H](C)C3)cn1 [#123] : 3.52 to 4.00

Per the records, this compound ( COC1(OC)CC(c2cccc(CN3CCC4(C=CC(=O)N4c4cccc(F)c4)CC3C)c2)C1 (racemic) [Example 82] ) has pIC50 equal to 3.52 to 4.00

get_value(item= CC1CC2(CCC(=O)N2c2cccc(F)c2)CCN1Cc1cccc(Oc2ccc(Cl)cc2)c1 (racemic) [Example 55] , readout=pIC50) returns 4.00 to 5.00

----------
Reported pIC50 values follow for various compounds
- target.or.test.system: soluble human BACE (Homo sapiens)
- Construct: cells secreting human recombinant soluble BACE; made in house; conditioned medium
- test.name: BACE activity Cell Free Assay (ELISA of cleaved synthetic APP substrate)
- Type: biochemical
pIC50: −log10 of the molar value. Where a name gives a salt, the structure may show the parent alone.

1. CC(C)Oc1cc(CN2CC[C@]3(CCC(=O)N3c3cccc(F)c3)C[C@@H]2C)ccc1O [Example 89, hydrochloride]: 6.00 to 9.00

For Cc1ccccc1-c1cccc(CN2CC[C@]3(CCC(=O)N3c3cccc(F)c3)C[C@@H]2C)c1 [Example 88, hydrochloride] the compound record lists pIC50 as 5.00 to 6.00

According to the records, this compound Cc1cccc(N2C(=O)C=C[C@]23CCN(Cc2ccc(O)c(Cl)c2)[C@@H](C)C3)n1 [#141, ammonium salt] displays pIC50 of 5.00 to 6.00

Value of pIC50 reported for the compound CC(C)Oc1cc(CN2CC[C@]3(C=CC(=O)N3c3cnccn3)C[C@@H]2C)ccc1O is 6.00 to 9.00

Notebook: CC(C)Oc1cccc(CN2CC[C@]3(C=CC(=O)N3c3cncc(C(F)(F)F)c3)C[C@@H]2C)c1 , pIC50 read as 4.00 to 5.00

Briefly, pIC50 measured for C[C@H]1C[C@@]2(CCC(=O)N2c2cccc(F)c2)CCN1Cc1ccc(O)c(Cl)c1 : 5.00 to 6.00

// field: pIC50; key: Cc1cccc(N2C(=O)C=C[C@]23CCN(Cc2scnc2CC2CCC2)[C@@H](C)C3)n1 ; value = 5.00 to 6.00

# pIC50 (compound: Cc1cccc(N2C(=O)C=C[C@]23CCN(Cc2cccc(OC(C)C)c2)[C@@H](C)C3)n1 ) is 5.00 to 6.00

# pIC50 of CC(C)Oc1cc(CN2CC[C@]3(C=CC(=O)N3c3cccc(F)c3)C[C@@H]2C)ccc1O [Example 87, hydrochloride] = 6.00 to 9.00

Briefly, pIC50 measured for CC1CC2(C=CC(=O)N2c2cccc(F)c2)CCN1Cc1c[nH]c2cc(F)ccc12 (racemic) : 4.00 to 5.00

Measured pIC50 of Cc1ccc(Oc2cccc(CN3CCC4(CCC(=O)N4c4cccc(F)c4)CC3C)c2)cc1 (racemic) : 4.00 to 5.00

Reported pIC50 for COc1cc(CN2CCC3(C=CC(=O)N3c3cccc(F)c3)CC2C)ccc1F (racemic) was 4.00 to 5.00

Summary for this compound, CC1CC2(C=CC(=O)N2c2cccc(F)c2)CCN1Cc1n[nH]c2ccc(Cl)cc12 (racemic) : pIC50 is 4.00 to 5.00

Measured pIC50, Cc1cccc(N2C(=O)C=C[C@]23CCN(Cc2ccc4cnn(C(C)C)c4c2)[C@@H](C)C3)n1 : 3.52 to 4.00

Measured pIC50 of CCCCOc1cccc(CN2CCC3(CCC(=O)N3c3cccc(F)c3)CC2C)c1 (racemic) : 3.52 to 4.00

The recorded pIC50 for CC1CC2(C=CC(=O)N2c2cccc(F)c2)CCN1Cc1cccc(-n2cccn2)c1 (racemic) is 4.00 to 5.00

----------
- target.or.test.system: soluble human BACE (Homo sapiens, UniProt P56817)
- Construct: cells secreting human recombinant soluble BACE; made in house; conditioned medium
- test.name: BACE activity Cell Free Assay (ELISA of cleaved synthetic APP substrate)
- Assay type: biochemical
- test.parameters: Table 6; cell free, soluble human BACE, pH 4.5, 3 μM substrate; read-out: BACE Activity (Cell Free Assay IC50)
Where a name gives a salt, the structure may show the parent alone.
attribute.measured: IC50

The compound CCCN1C(=O)C=C[C@]12CCN(Cc1cccc(OC(C)C)c1)[C@@H](C)C2 [Example @94] on soluble human BACE (Homo sapiens, UniProt P56817): IC50 was 100 to 300 µM

Query CC(C)Oc1cccc(CN2CC[C@]3(C=CC(=O)N3C3CC3)C[C@@H]2C)c1 [Example @95, trifluoroacetate salt] on soluble human BACE (Homo sapiens, UniProt P56817); IC50 returned: 100 to 300 µM

The reported soluble human BACE (Homo sapiens, UniProt P56817) IC50 of CC(C)Oc1cccc(CN2CC[C@]3(C=CC(=O)N3CC3CC3)C[C@@H]2C)c1 [Example @93] is 100 to 300 µM
